Data provenance: ChEMBL document CHEMBL1125815

- Species on record: Mus musculus
- PROTOCOL TEXT: Anticonvulsant activity against pentylenetetrazole-induced clonic seizures in mice
- Type: functional
- STUDY CONDITIONS: Mus musculus; read-out: ED50
So basically: is ED50 under 40 mg/kg? Then t. Not under? Then f.

Example cases with answers are listed next.
[
  {
    "CHEMICAL STRUCTURE": "Cc1ccc(-c2nc3cccnc3n2CC(=O)N(C)C)cc1",
    "GROUP": "t"
  },
  {
    "CHEMICAL STRUCTURE": "Cc1ccc(-c2nc3ccc(Cl)nc3n2CC(=O)N(C)C)cc1",
    "GROUP": "t"
  },
  {
    "CHEMICAL STRUCTURE": "O=C(Cn1c(-c2ccc(Cl)cc2)nc2cccnc21)Nc1ccccn1",
    "GROUP": "f"
  },
  {
    "CHEMICAL STRUCTURE": "C[C@H](C(=O)N(C)C)n1c(-c2ccc(Cl)cc2)nc2cccnc21",
    "GROUP": "f"
  },
  {
    "CHEMICAL STRUCTURE": "CN(C)C(=O)Cn1c(-c2ccc(Cl)cc2)nc2cc(Cl)cnc21",
    "GROUP": "f"
  }
]

query: Criterion: ED50 strictly below 40 mg/kg. Is it met by CC(=O)Oc1ccc2nc(-c3ccc(Cl)cc3)n(CC(=O)N(C)C)c2n1 ?
result: f

====

- Species on record: Mus musculus
- PROTOCOL TEXT: Anticonvulsant activity against pentylenetetrazole-induced clonic seizures in mice
- Type: functional
- STUDY CONDITIONS: Mus musculus; read-out: ED50
This section presents molecules with their documented ED50 values.
Give a bare numeral; the unit mg/kg is implied.

[
  {
    "CHEMICAL STRUCTURE": "CN(C)C(=O)Cn1c(-c2ccc(Br)cc2)nc2cccnc21",
    "OBSERVED PROPERTY": "ED50",
    "MEAS VALUE": 7
  },
  {
    "CHEMICAL STRUCTURE": "CN(C)C(=O)Cn1c(-c2ccccc2)nc2cccnc21",
    "OBSERVED PROPERTY": "ED50",
    "MEAS VALUE": 35
  },
  {
    "CHEMICAL STRUCTURE": "CN(C)C(=O)Cn1c(-c2ccc(Br)o2)nc2cccnc21",
    "OBSERVED PROPERTY": "ED50",
    "MEAS VALUE": 100
  },
  {
    "CHEMICAL STRUCTURE": "Cc1ccc(-c2nc3cccnc3n2CC(N)=O)cc1",
    "OBSERVED PROPERTY": "ED50",
    "MEAS VALUE": 50.5
  },
  {
    "CHEMICAL STRUCTURE": "NC(=O)Cn1c(-c2ccc(Cl)cc2)nc2cccnc21",
    "OBSERVED PROPERTY": "ED50",
    "MEAS VALUE": 4.1
  },
  {
    "CHEMICAL STRUCTURE": "CN(C)C(=O)Cn1c(-c2ccc(Cl)cc2)nc2ccc(Cl)nc21",
    "OBSERVED PROPERTY": "ED50",
    "MEAS VALUE": 1.1
  }
]

In the following, a different molecule is considered.
query: Which ED50 is reported for this molecule? CCN(CC)C(=O)Cn1c(-c2ccc(Cl)cc2)nc2cccnc21
result: 16
